Hey, just so you know, these numbers are from patent US20190292179A1.

- tested on: HIS-TGFβR1 T204D (Homo sapiens, UniProt P36897, T204D)
- Sequence (P36897 34-503 T204D): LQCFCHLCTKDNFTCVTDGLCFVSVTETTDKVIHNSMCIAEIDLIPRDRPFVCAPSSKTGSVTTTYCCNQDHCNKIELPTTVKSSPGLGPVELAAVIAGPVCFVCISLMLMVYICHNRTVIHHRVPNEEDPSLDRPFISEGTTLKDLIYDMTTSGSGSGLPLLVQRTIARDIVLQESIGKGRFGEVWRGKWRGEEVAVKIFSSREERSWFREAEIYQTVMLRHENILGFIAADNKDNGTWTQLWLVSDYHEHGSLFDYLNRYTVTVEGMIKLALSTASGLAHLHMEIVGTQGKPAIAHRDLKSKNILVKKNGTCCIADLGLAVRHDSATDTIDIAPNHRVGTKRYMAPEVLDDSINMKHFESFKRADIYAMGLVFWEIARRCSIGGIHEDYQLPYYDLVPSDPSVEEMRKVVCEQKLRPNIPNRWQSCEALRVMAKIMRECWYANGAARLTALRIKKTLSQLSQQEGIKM
- test method notes: HTRF probe-displacement assay with HIS-TGFβR1 T204D
- Type: binding
- assay conditions: 1 nM HIS-TGFβR1 T204D, labeled probe at Kd, 1 hour at room temperature
Structures can show the parent of a compound that is named as a salt.
Entries and their measured IC50 follow.
result type: IC50 (µM)

{"compound": "CC(C)c1[nH]nc(-c2ccc(F)cc2)c1-c1ccc2ncc(C(N)=O)n2c1", "meas value": 0.001}
{"compound": "Fc1ccc(-c2n[nH]cc2-c2ccc3nncn3c2)cc1 [Example 31, TFA]", "meas value": 0.112}
{"compound": "Cn1nc(-c2ccc(F)cc2)c(-c2ccc3ncc(C(N)=O)n3c2)c1C1CC1", "meas value": 0.001}
{"compound": "CCc1[nH]nc(-c2cccc(C)n2)c1-c1ccc2ncc(C(N)=O)n2c1", "meas value": 0.001}
{"compound": "Cc1cccc(-c2nn(CC(F)F)cc2-c2ccc3ncc(C#N)n3c2)n1", "meas value": 0.003}
